Where these numbers come from: ChEMBL document CHEMBL1148495

Kindly state solubility for each of the entries shown.
- test.details: Solubility in SGF at pH 1.8
- Assay type: physicochemical
Give the value in µg/mL but do not write µg/mL after it.

If you can, please state the reported solubility value of CS(=O)(=O)c1ccc(C2=C(c3ccccc3)C(=O)OC2)cc1 .
16

If you can, please state the reported solubility value of C[S+]([O-])c1ccc(C2=C(c3ccccc3)C(=O)OC2)cc1 (centres undefined) .
717

---

Kindly state solubility for each of the entries shown.
- test.details: Solubility in PBS at pH 7.2
- Format: physicochemical
Give the value in µg/mL but do not write µg/mL after it.

If you can, please state the reported solubility value of C[S+]([O-])c1ccc(C2=C(c3ccccc3)C(=O)OC2)cc1 (centres undefined) .
537

If you can, please state the reported solubility value of Cc1ccc(-c2ncc(Cl)cc2-c2ccc(S(C)(=O)=O)cc2)cn1 .
104

If you can, please state the reported solubility value of CS(=O)(=O)c1ccc(C2=C(c3ccccc3)C(=O)OC2)cc1 .
15
